Tested on: HTT mRNA
ASSAY: Splicing RT-qPCR assay, HTT canonical (CJ) and alternative (AJ) junction mRNA
Assay type: cell-based, human
ASSAY SETUP: Homo sapiens, canonical junction mRNA, qPCR panel; read-out: HTT CJ (decrease in CJ mRNA levels, IC50)
Experimental: Compounds described herein were used to modulate RNA transcript abundance in cells. The expression of a target mRNA was measured by detecting the formation of an exon-exon junction in the canonical transcript (CJ). A compound mediated exon-inclusion event was detected by observing an increase in formation of a new junction with an alternative exon (AJ). Real-time qPCR assays were used to detect these splicing switches and interrogate the potency of various compounds towards different target genes. […]
Where a name gives a salt, the structure may show the parent alone.
# IC50 per record follows

{"COMPOUND": "Cc1c(O)c(-c2ccc3nc(N4CCNCC4)cnc3n2)cc2cn(C)nc12", "TEST SYSTEM": "HTT mRNA", "IC50": "100 to 1000 nM"}
{"COMPOUND": "CCNC1CCN(c2cnc3nc(-c4cc5cn(C)nc5c(C)c4O)ccc3c2)C1 (centres unmarked)", "TEST SYSTEM": "HTT mRNA", "IC50": "< 100 nM"}

Prompt: Given the compound CN[C@H]1CN(c2cnc3nc(-c4cc5cn(C)nc5c(C)c4O)ccc3c2)C[C@@H]1C , what is its reported IC50?
Completion: 100 to 1000 nM

Prompt: Recorded IC50 of CNC(=O)c1cc(-c2cc3cn(C)nc3c(C)c2O)nc2ncc(N3CCNCC3)cc12 , please.
Completion: > 10000 nM

Prompt: So what does the record say about IC50 for CN[C@@H]1CN(c2cnc3nc(-c4cc5cn(C)nc5c(C)c4O)ccc3c2)C[C@@H]1C ?
Completion: 100 to 1000 nM

Prompt: So what does the record say about IC50 for Cc1cn2nc(-c3cnc4nc(C5CCNCC5)ccc4c3)cc(C)c2n1 ?
Completion: 1000 to 10000 nM

Prompt: Return reported IC50; argument: Cn1cc2cc(-c3ccc4cc(N5CC[C@H](NC(C)(C)C)C5)cnc4n3)c(O)cc2n1 (single isomer, unassigned)
Completion: 1000 to 10000 nM

Prompt: Dear colleague, I am looking for the recorded IC50 of the following compound: CCN[C@@H]1CCN(c2cnc3nc(-c4cc5cn(C)nc5cc4O)ccc3c2)C1 [Compound 310, hydrochloride]
Completion: < 100 nM
